SYSTEM TESTED: DtabGOBP2 (Dendrolimus tabulaeformis)
ASSAY PROTOCOL: Competitive fluorescence binding assay (displacement of 1-NPN), DtabGOBP2
DETAILS: DtabGOBP2; 1-NPN fluorescence at ligand max conc 16; protein and 1-NPN at 2 μM, pH 7.4; read-out: %of max±SE
Description: Emission fluorescence spectra were performed on an F-4500 fluorescence Spectrophotometer (Hitachi, Japan) at 25 °C with a 1 cm light path quartz cuvette and 5 nm slits for both excitation and emission. […] The fluorescence of the mixture was recorded after 5 min to allow the signal to stabilize. […] To understand the ligand binding properties of the three OBPs, we prepared the recombinant proteins. […] The probe was excited at 337 nm, and emission spectra were recorded between 380 and 450 nm. […]
Reported values of activity at 16 µM for individual entries
Reply numerically in %, unit not repeated.

Looking up C=CC(C)(O)CCC=C(C)C (stereo not shown) , I see its activity at 16 µM listed as 95.2

Looking up CCCC/C=C/C=C\CCCCO , I see its activity at 16 µM listed as 65.6

Looking up CCCCCC/C=C\CCCCOC(C)=O [Z5-12:OAc, (Z)-5-dodecenyl acetate] , I see its activity at 16 µM listed as 66.6

###

SYSTEM TESTED: DtabPBP1 (Dendrolimus tabulaeformis)
Sequence (A0A059PCM8 entry or part of it): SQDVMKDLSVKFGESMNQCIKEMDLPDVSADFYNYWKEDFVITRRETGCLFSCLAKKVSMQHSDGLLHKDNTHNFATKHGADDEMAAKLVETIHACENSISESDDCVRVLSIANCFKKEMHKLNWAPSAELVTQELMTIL
ASSAY PROTOCOL: Competitive fluorescence binding assay (displacement of 1-NPN), DtabPBP1
DETAILS: DtabPBP1; calculated from IC50 of 1-NPN displacement; read-out: KD±SE
QUANTITY NAME: pKd
Just so you know, pKd here is -log10 of the concentration in molar units; reply with that number alone.

Lab entry: DtabPBP1 (Dendrolimus tabulaeformis) assay, compound CCCC/C=C/C=C\CCCCOC(=O)CC [Z5,E7-12:OPr, (5Z,7E)-5,7-dodecadien-1-yl propionate] , pKd = 5.44

###

SYSTEM TESTED: DtabPBP1 (Dendrolimus tabulaeformis)
ASSAY PROTOCOL: Competitive fluorescence binding assay (displacement of 1-NPN), DtabPBP1
DETAILS: DtabPBP1; 1-NPN fluorescence at ligand max conc 16; protein and 1-NPN at 2 μM, pH 7.4; read-out: %of max±SE
Note to self: activity at 16 µM under 80% means Yes, ties and anything higher get No.

# input Lab note: confirm whether the reported activity at 16 µM for this compound is below 80%, equality not counting. compound: C=CC(C)(O)CCC=C(C)C (stereo not drawn)
# output No

# input Lab note: confirm whether the reported activity at 16 µM for this compound is below 80%, equality not counting. compound: CCCCCC/C=C\CCCCO [Z5-12:OH, (Z)-5-dodecenyl alcohol]
# output Yes

###

SYSTEM TESTED: UniProt:A0A059PCR0
ASSAY PROTOCOL: Competitive fluorescence binding assay (displacement of 1-NPN), DtabGOBP2
DETAILS: DtabGOBP2; 1-NPN fluorescence at ligand max conc 16; protein and 1-NPN at 2 μM, pH 7.4
QUANTITY NAME: %of max±SE (%)
Reply numerically in %, unit not repeated.

Please review the entries below; each comes with its answer.
>>> df
                                   molecule  quantity_name  experimental_result
0  C=C(C)C1CC=C(C)CC1 (single isomer, unassigned; (+)) [(+)-Limonene, (+)-limonene]     %of max±SE                 88.0
1  CC1=CCC2CC1C2(C)C (stereo not drawn) [(-)-α-Pinene, (−)-α-pinene]     %of max±SE                 90.8
2  C=C1CCC2CC1C2(C)C (stereo not drawn) [(-)-β-Pinene, (−)-β-pinene]     %of max±SE                 83.2
3  CC1=CCC2C(C1)C2(C)C (single isomer, unassigned; (+)) [(+)-3-Carene, (+)-3-carene]     %of max±SE                 84.3

Proceeding to the next molecule to report its %of max±SE.
Looking up C=CC(=C)CCC=C(C)C [β-Myrene, β-myrene] , I see its %of max±SE listed as 83.3

###

SYSTEM TESTED: DtabPBP1 (Dendrolimus tabulaeformis)
ASSAY PROTOCOL: Competitive fluorescence binding assay (displacement of 1-NPN), DtabPBP1
DETAILS: DtabPBP1; 1-NPN fluorescence at ligand max conc 16; protein and 1-NPN at 2 μM, pH 7.4
QUANTITY NAME: %of max±SE

Looking up C=C(C)C1CC=C(C)CC1 (single isomer, unassigned; (+)) [(+)-Limonene, (+)-limonene] , I see its %of max±SE listed as 94.4±0.4%

Looking up C=CC(=C)CCC=C(C)C , I see its %of max±SE listed as 86.5±0.8%

###

SYSTEM TESTED: DtabGOBP1 (Dendrolimus tabulaeformis, UniProt A0A059PCQ9)
Sequence (A0A059PCQ9 entry or part of it): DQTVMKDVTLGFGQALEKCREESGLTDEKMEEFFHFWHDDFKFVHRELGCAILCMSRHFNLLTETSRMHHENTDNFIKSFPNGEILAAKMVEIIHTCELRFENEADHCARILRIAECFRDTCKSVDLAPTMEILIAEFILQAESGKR
ASSAY PROTOCOL: Competitive fluorescence binding assay (displacement of 1-NPN), DtabGOBP1
DETAILS: DtabGOBP1; 1-NPN fluorescence at ligand max conc 16; protein and 1-NPN at 2 μM, pH 7.4
Reported values of %of max±SE for individual entries
Reply numerically in %, unit not repeated.

Please review the entries below; each comes with its answer.
                                   compound                             system_tested  scale_unit  experimental_result
0  C=C(C)C1CC=C(C)CC1 (single isomer, unassigned; (+)) [(+)-Limonene, (+)-limonene]  DtabGOBP1 (Dendrolimus tabulaeformis, UniProt A0A059PCQ9)           %                 78.2
1    C=CC(=C)CCC=C(C)C [β-Myrene, β-myrene]  DtabGOBP1 (Dendrolimus tabulaeformis, UniProt A0A059PCQ9)           %                 67.8
2  CC1=CCC2CC1C2(C)C (stereo not drawn) [(-)-α-Pinene, (−)-α-pinene]  DtabGOBP1 (Dendrolimus tabulaeformis, UniProt A0A059PCQ9)           %                 96.4

Looking up C=C1CCC2CC1C2(C)C (stereo not drawn) [(-)-β-Pinene, (−)-β-pinene] , I see its %of max±SE listed as 82.8

###

SYSTEM TESTED: DtabGOBP1 (Dendrolimus tabulaeformis, UniProt A0A059PCQ9)
ASSAY PROTOCOL: Competitive fluorescence binding assay (displacement of 1-NPN), DtabGOBP1
DETAILS: DtabGOBP1; 1-NPN fluorescence at ligand max conc 16; protein and 1-NPN at 2 μM, pH 7.4; read-out: %of max±SE
Reported values of activity at 16 µM for individual entries
Reply numerically in %, unit not repeated.

Looking up CCCC/C=C/C=C\CCCCOC(C)=O [Z5,E7-12:OAc, (5Z,7E)-5,7-dodecadien-1-yl acetate] , I see its activity at 16 µM listed as 67.9

Looking up C=CC(C)(O)CCC=C(C)C (stereo not drawn) [Linalool, linalool] , I see its activity at 16 µM listed as 90.4

Looking up CCCC/C=C/C=C\CCCCO [Z5,E7-12:OH, (5Z,7E)-5,7-dodecadien-1-ol] , I see its activity at 16 µM listed as 81

Looking up CCCCCC/C=C\CCCCO [Z5-12:OH, (Z)-5-dodecenyl alcohol] , I see its activity at 16 µM listed as 77.2

Looking up CCCC/C=C/C=C\CCCCOC(=O)CC [Z5,E7-12:OPr, (5Z,7E)-5,7-dodecadien-1-yl propionate] , I see its activity at 16 µM listed as 37.1

Looking up CC1=CCC(=C(C)C)CC1 [Terpinolene, terpinolene] , I see its activity at 16 µM listed as 100

###

SYSTEM TESTED: DtabGOBP1 (Dendrolimus tabulaeformis, UniProt A0A059PCQ9)
QUANTITY NAME: Ki
Answer format: number, then unit.

Looking up CCCC/C=C/C=C\CCCCOC(=O)CC [Z5,E7-12:OPr, (5Z,7E)-5,7-dodecadien-1-yl propionate] , I see its Ki listed as 1900 nM

###

Reported values of activity at 16 µM for individual entries
SYSTEM TESTED: DtabGOBP2 (Dendrolimus tabulaeformis, UniProt A0A059PCR0)
Sequence (A0A059PCR0 entry or part of it): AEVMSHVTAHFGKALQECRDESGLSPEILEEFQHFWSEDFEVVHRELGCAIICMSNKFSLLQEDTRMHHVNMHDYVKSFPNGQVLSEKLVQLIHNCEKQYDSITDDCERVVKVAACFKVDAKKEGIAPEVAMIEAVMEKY
ASSAY PROTOCOL: Competitive fluorescence binding assay (displacement of 1-NPN), DtabGOBP2
DETAILS: DtabGOBP2; 1-NPN fluorescence at ligand max conc 16; protein and 1-NPN at 2 μM, pH 7.4; read-out: %of max±SE
Reply numerically in %, unit not repeated.

Please review the entries below; each comes with its answer.
>>> df
                                   compound                             system_tested  scale_unit  experimental_result
0                        CC1=CCC(=C(C)C)CC1  DtabGOBP2 (Dendrolimus tabulaeformis, UniProt A0A059PCR0)           %                 85.3
1  CCCC/C=C/C=C\CCCCOC(=O)CC [Z5,E7-12:OPr, (5Z,7E)-5,7-dodecadien-1-yl propionate]  DtabGOBP2 (Dendrolimus tabulaeformis, UniProt A0A059PCR0)           %                 44.8
2  CCCCCC/C=C\CCCCO [Z5-12:OH, (Z)-5-dodecenyl alcohol]  DtabGOBP2 (Dendrolimus tabulaeformis, UniProt A0A059PCR0)           %                   67

Looking up CCCC/C=C/C=C\CCCCOC(C)=O [Z5,E7-12:OAc, (5Z,7E)-5,7-dodecadien-1-yl acetate] , I see its activity at 16 µM listed as 66.2
